# KD ratio to GLS3000 annotations
assayTarget: T1, CD3 epsilon homodimer protein (UniProt P07766 23-126)
T1 construct: also called CD3 (CD3 epsilon)
T1 sequence (P07766 23-126): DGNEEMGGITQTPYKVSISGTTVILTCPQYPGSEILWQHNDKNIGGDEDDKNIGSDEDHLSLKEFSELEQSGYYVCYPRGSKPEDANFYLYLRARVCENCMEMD
methodSummary: SPR, antibody over immobilised CD3e homodimer;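 note: SPR at 25 °C with CD3 epsilon homodimer amine-coupled to a CM4 sensor chip and antibody flowed over as analyte in HBS-EP+ running buffer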
valueType: KD ratio to GLS3000

>>> reading("CE115HA000/GLS3000 S27aI (antibody, IgG1, name in Kabat numbering, V domains shown, one-arm IgG1) VH: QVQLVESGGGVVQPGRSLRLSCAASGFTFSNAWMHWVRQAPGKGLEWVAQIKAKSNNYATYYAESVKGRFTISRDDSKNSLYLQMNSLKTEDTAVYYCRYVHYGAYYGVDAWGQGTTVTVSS VL: DIVMTQSPLSLPVTPGEPASISCRSSQILVHSNRNTYLHWYQQKPGQAPRLLIYKVSNRFSGVPDRFSGSGSGTDFTLKISRVEAEDVGVYYCGQGTQVPYTFGQGTKLEIK")
0.87
>>> reading("CE115HA000/GLS3000 V27cS (antibody, IgG1, name in Kabat numbering, V domains shown, one-arm IgG1) VH: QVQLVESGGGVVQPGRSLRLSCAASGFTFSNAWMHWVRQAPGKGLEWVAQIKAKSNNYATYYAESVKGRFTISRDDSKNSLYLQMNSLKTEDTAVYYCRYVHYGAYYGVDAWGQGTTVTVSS VL: DIVMTQSPLSLPVTPGEPASISCRSSQSLSHSNRNTYLHWYQQKPGQAPRLLIYKVSNRFSGVPDRFSGSGSGTDFTLKISRVEAEDVGVYYCGQGTQVPYTFGQGTKLEIK")
3.04
>>> reading("CE115HA000/GLS3000 F55G (antibody, IgG1, name in Kabat numbering, V domains shown, one-arm IgG1) VH: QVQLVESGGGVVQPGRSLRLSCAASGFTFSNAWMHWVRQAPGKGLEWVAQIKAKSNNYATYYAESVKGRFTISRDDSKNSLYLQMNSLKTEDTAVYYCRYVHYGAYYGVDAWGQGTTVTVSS VL: DIVMTQSPLSLPVTPGEPASISCRSSQSLVHSNRNTYLHWYQQKPGQAPRLLIYKVSNRGSGVPDRFSGSGSGTDFTLKISRVEAEDVGVYYCGQGTQVPYTFGQGTKLEIK")
1.15
>>> reading("CE115HA000/GLS3000 N30V (antibody, IgG1, name in Kabat numbering, V domains shown, one-arm IgG1) VH: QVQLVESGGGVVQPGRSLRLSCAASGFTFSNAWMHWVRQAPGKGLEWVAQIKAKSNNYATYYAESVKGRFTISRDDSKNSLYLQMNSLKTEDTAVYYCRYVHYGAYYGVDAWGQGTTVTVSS VL: DIVMTQSPLSLPVTPGEPASISCRSSQSLVHSNRVTYLHWYQQKPGQAPRLLIYKVSNRFSGVPDRFSGSGSGTDFTLKISRVEAEDVGVYYCGQGTQVPYTFGQGTKLEIK")
2.62
>>> reading("CE115HA000/GLS3000 Y96L (antibody, IgG1, name in Kabat numbering, V domains shown, one-arm IgG1) VH: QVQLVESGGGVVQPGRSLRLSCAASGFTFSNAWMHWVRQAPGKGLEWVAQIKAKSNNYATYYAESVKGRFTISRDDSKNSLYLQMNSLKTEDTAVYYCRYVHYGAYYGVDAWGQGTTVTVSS VL: DIVMTQSPLSLPVTPGEPASISCRSSQSLVHSNRNTYLHWYQQKPGQAPRLLIYKVSNRFSGVPDRFSGSGSGTDFTLKISRVEAEDVGVYYCGQGTQVPLTFGQGTKLEIK")
1.84

Measured values drawn from patent US20210388087A1 for this set.
